Target: Casein kinase I
Experiment: Inhibition of casein kinase 1
Format: protein assay
Listing of recorded IC50 by entry.

Recorded results for 2 compounds are shown here.
[ask] Enter measured IC50, system Casein kinase I, for the compound shown: "CN(C)CCNc1cncc(-c2cncc(Nc3cccc(Cl)c3)n2)c1"
[reply] > 10 µM

[ask] Enter measured IC50, system Casein kinase I, for the compound shown: "Clc1cccc(Nc2cncc(-c3cncc(NCCCc4cccnc4)c3)n2)c1"
[reply] > 10 µM

***
[ask] Enter measured IC50, system Casein kinase I, for the compound shown: "OCCCNc1cncc(-c2cncc(Nc3cccc(Cl)c3)n2)c1"
[reply] > 10 µM

* * *

Listing of recorded pIC50 by entry.
Target: Vascular endothelial growth factor receptor 2 (Homo sapiens)
Sequence (P35968 whole entry): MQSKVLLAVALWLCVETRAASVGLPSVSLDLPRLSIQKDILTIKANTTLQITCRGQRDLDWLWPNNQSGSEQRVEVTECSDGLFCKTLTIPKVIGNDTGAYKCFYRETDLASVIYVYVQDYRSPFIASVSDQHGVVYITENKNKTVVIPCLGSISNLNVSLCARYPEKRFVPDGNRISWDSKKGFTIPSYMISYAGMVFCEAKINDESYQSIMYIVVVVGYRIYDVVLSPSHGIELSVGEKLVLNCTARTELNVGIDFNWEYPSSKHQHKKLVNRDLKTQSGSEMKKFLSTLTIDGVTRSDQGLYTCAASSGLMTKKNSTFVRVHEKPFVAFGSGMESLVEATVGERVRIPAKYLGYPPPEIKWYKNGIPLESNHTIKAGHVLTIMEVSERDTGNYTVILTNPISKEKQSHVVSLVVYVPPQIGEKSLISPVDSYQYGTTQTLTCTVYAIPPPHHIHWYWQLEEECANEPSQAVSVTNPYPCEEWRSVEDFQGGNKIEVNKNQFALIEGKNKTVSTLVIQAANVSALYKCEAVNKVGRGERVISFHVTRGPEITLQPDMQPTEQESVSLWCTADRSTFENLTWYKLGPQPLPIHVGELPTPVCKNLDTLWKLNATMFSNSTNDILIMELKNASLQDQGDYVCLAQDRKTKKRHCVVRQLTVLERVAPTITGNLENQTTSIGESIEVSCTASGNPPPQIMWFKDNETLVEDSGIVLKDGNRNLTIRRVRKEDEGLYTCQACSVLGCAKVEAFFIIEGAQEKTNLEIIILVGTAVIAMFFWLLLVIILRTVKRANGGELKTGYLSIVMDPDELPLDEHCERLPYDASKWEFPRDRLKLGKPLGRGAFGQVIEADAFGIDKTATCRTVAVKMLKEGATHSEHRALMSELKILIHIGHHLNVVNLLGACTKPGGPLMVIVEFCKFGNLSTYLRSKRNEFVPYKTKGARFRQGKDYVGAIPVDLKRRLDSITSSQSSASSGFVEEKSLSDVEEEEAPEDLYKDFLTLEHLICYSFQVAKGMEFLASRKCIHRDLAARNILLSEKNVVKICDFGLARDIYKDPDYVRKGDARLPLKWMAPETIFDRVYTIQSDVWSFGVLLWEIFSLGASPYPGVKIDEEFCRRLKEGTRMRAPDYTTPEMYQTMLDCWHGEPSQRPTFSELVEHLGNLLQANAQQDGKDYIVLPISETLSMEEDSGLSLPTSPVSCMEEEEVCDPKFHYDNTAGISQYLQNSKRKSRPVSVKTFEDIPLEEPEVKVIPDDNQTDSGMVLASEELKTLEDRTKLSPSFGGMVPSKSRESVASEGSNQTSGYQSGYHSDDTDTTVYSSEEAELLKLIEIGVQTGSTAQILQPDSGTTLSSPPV
Assay: Inhibition of vascular endothelial growth factor receptor 2
Note on pIC50: it is the negative log10 of concentration, concentration in mol/L.

Recorded results for 10 compounds are shown here.
[ask] Enter measured pIC50, system Vascular endothelial growth factor receptor 2 (Homo sapiens), for the compound shown: "COCC(=O)Nc1cncc(-c2cncc(Nc3cccc(Cl)c3)n2)c1"
[reply] 6.52

[ask] Enter measured pIC50, system Vascular endothelial growth factor receptor 2 (Homo sapiens), for the compound shown: "O=C(O)CCCNc1cncc(-c2cncc(Nc3cccc(Cl)c3)n2)c1"
[reply] 6.25

[ask] Enter measured pIC50, system Vascular endothelial growth factor receptor 2 (Homo sapiens), for the compound shown: "Clc1cccc(Nc2cncc(-c3cncc(NCCCn4cccn4)c3)n2)c1"
[reply] 7.03

[ask] Enter measured pIC50, system Vascular endothelial growth factor receptor 2 (Homo sapiens), for the compound shown: "Clc1cccc(Nc2cncc(-c3cncc(NCCCc4ccccc4)c3)n2)c1"
[reply] 5.64

[ask] Enter measured pIC50, system Vascular endothelial growth factor receptor 2 (Homo sapiens), for the compound shown: "Clc1cccc(Nc2cncc(-c3cncc(NCC4CCOCC4)c3)n2)c1"
[reply] 6.41

[ask] Enter measured pIC50, system Vascular endothelial growth factor receptor 2 (Homo sapiens), for the compound shown: "O=C(CCCNc1cncc(-c2cncc(Nc3cccc(Cl)c3)n2)c1)N1CCCCC1"
[reply] 6.21

[ask] Enter measured pIC50, system Vascular endothelial growth factor receptor 2 (Homo sapiens), for the compound shown: "OCCCCNc1cncc(-c2cncc(Nc3cccc(Cl)c3)n2)c1"
[reply] 7.20

[ask] Enter measured pIC50, system Vascular endothelial growth factor receptor 2 (Homo sapiens), for the compound shown: "CN1CCN(CCCNc2cncc(-c3cncc(Nc4cccc(Cl)c4)n3)c2)CC1"
[reply] 6.91

[ask] Enter measured pIC50, system Vascular endothelial growth factor receptor 2 (Homo sapiens), for the compound shown: "COc1cccc(Nc2cncc(-c3cncc(NCCCO)c3)n2)c1"
[reply] 6.13

[ask] Enter measured pIC50, system Vascular endothelial growth factor receptor 2 (Homo sapiens), for the compound shown: "Nc1cncc(-c2cncc(Nc3cccc(Cl)c3)n2)c1"
[reply] 5.94

***
[ask] Enter measured pIC50, system Vascular endothelial growth factor receptor 2 (Homo sapiens), for the compound shown: "CN(C)CCNc1cncc(-c2cncc(Nc3cccc(Cl)c3)n2)c1"
[reply] 6.98

[ask] Enter measured pIC50, system Vascular endothelial growth factor receptor 2 (Homo sapiens), for the compound shown: "Clc1cccc(Nc2cncc(-c3cncc(NCCCCc4ccncc4)c3)n2)c1"
[reply] 6.58

[ask] Enter measured pIC50, system Vascular endothelial growth factor receptor 2 (Homo sapiens), for the compound shown: "Clc1cccc(Nc2cncc(-c3cncc(NCCCn4cncn4)c3)n2)c1"
[reply] 7.17

Provenance of the data: ChEMBL document CHEMBL1140334
